Attribution: the supplement of paper PMC7125110

Field: self-cleavage kobs at 160 uM GlcN6P. Provide a value for each of the variants that follow.
B1: glmS ribozyme (parent)
chain: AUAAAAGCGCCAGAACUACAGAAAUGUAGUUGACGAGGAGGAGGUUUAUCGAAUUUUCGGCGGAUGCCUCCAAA

# Variants of: B1
# PROCEDURE_SUMMARY: self-cleavage kobs at 160 uM GlcN6P; higher = faster cleavage; RNA array
# EXPERIMENTAL_PARAMETERS: with glucosamine-6-phosphate
Variants at the floor of the assay were thinned out.

Kindly note the recorded self-cleavage kobs at 160 uM GlcN6P for AUAAAAGCGCCAGAACUACAGAAAUGUAGUUGACUAGGAGGAGGUUUAUGGAAUUUUCGGCGGAUGCCUCCAAA [G35U C50G] , which is 9.05e-05 s⁻¹

Kindly note the recorded self-cleavage kobs at 160 uM GlcN6P for AUAAAAGCGCCAGAACUACAGAAAUGUAGUUGACGACGAGGAGGUUCAUCGUAUUUUCGGCGGAUGCCUCCAAA [G37C U47C A52U] , which is < 1e-05 s⁻¹

Kindly note the recorded self-cleavage kobs at 160 uM GlcN6P for AUAAAAGCGCCAGAACUACAGAAAUGUAGUUGACGAGGAGGAGGUUUAUCGAAUAUUCGGCGGAUACCUCCAAA [U55A G66A] , which is 0.00137 s⁻¹

Kindly note the recorded self-cleavage kobs at 160 uM GlcN6P for AUAAAAGCGCCAGAACUACAGAAAUGUAGUUGACGAGGAGGAGGUUUAUCGAACUUUCGGCCGAUGCCUCCAAA [U54C G62C] , which is < 1e-05 s⁻¹

Kindly note the recorded self-cleavage kobs at 160 uM GlcN6P for AUAAAAGCGCCAGAACUACAGAAAUGUAGUUGACUAGGAGGAGGUUUAUUGAAUUUUCGGCGGAUGCCUCCAAA [G35U C50U] , which is < 1e-05 s⁻¹

Kindly note the recorded self-cleavage kobs at 160 uM GlcN6P for AUAAAAGCGCCGGAACUACAGAAAUGUAGUUGACGAGGAGGAGGUUUAUCGAAUUUUCGGCGGAUGCUUCCAAA [A12G C68U] , which is 3.11e-05 s⁻¹

Kindly note the recorded self-cleavage kobs at 160 uM GlcN6P for AUAAAAGCGCCAGAACUACAGAAAUGUAGUUGACCAGGAGGAGGUUUAUCGAAUUUUCGGCGGUUGCCUCCAAA [G35C A64U] , which is < 1e-05 s⁻¹

Kindly note the recorded self-cleavage kobs at 160 uM GlcN6P for AUAAAAGCGCCAGAACUACAGAAAUGUAGUUGACGAGGAGGAGGUUUUUCGAAUUUUCGGCGGAAGCCUCCAAA [A48U U65A] , which is < 1e-05 s⁻¹

Kindly note the recorded self-cleavage kobs at 160 uM GlcN6P for AUAAAAGCGCCAGAAAUACAGAAAUGUAGUUGACGAGGAGGAGGUUUAUCGAAUUUUCGGCGGAUGCCUCGAAA [C16A C71G] , which is 3.88e-05 s⁻¹

Kindly note the recorded self-cleavage kobs at 160 uM GlcN6P for AUAAAAGGGCCAGAACUACAGAAAUGUAGUUGACGAGGAGGAGGUUUAUCGAAUUUUCAGCGGAUGCCUCGAAA [C8G G59A C71G] , which is < 1e-05 s⁻¹

Kindly note the recorded self-cleavage kobs at 160 uM GlcN6P for AUAAAAGUGCCCGAACUACAGAAAUGUAGUUGACGGAGAGGAGGUUUAUCGAAUUUUCGGCGGAUGCCUCCAAA [C8U A12C A36G G37A] , which is < 1e-05 s⁻¹

Kindly note the recorded self-cleavage kobs at 160 uM GlcN6P for ACAAAAGCGCCAGAACUACAGAAAUGUAGUUGGCGAGGAGGAGGUUUAUCGAAUUUUCGGCGGAUGCCUCCAAA [U2C A33G] , which is < 1e-05 s⁻¹

Kindly note the recorded self-cleavage kobs at 160 uM GlcN6P for AUAAAAGAGCCAGAACUACAGAAAUGUAGUUUACGAGGAGGAGGUUUAUCGAAUUUUCGGCGGAUGCCUCCAAA [C8A G32U] , which is < 1e-05 s⁻¹

Kindly note the recorded self-cleavage kobs at 160 uM GlcN6P for AUAAAAGCGCCAGAACUACAGAAAUGUAGUUGACGAGGAGGAGGUUUAUCGAAUUUUCGGCGGAUGACUUCAAA [C67A C70U] , which is 0.000211 s⁻¹

Kindly note the recorded self-cleavage kobs at 160 uM GlcN6P for AUAAAAGCGCAAGAACUACAGAAAUGUAGUUGACGAGGAGGAGGUUUGUCGAAUUUUCGGCGGAUGCCUCCAAA [C11A A48G] , which is < 1e-05 s⁻¹

Kindly note the recorded self-cleavage kobs at 160 uM GlcN6P for AUAAAAGCGCCGGAACUACAGAAAUGUAGUUGACGAGUAGGAGGUUUAUCGAAUUUCCGGCGGAUGCCUCCAAA [A12G G38U U57C] , which is < 1e-05 s⁻¹

Kindly note the recorded self-cleavage kobs at 160 uM GlcN6P for AUAAAUGCGCCAGAACUACAGAAAUGUAGUUGACGAGGAGGAGGUUUAUGGAAUUUUCGGCGGAUGCCUCCAAA [A6U C50G] , which is 6.77e-05 s⁻¹

Kindly note the recorded self-cleavage kobs at 160 uM GlcN6P for AUAAAAGCGCCAGAACUACAGAAAUGUAGUUGAGGAGGAGGAGUUUUAUCGAAUUUUCGGCGGAUGCCUCCAAA [C34G G44U] , which is < 1e-05 s⁻¹
